Cited source for all entries: PubChem BioAssay

test: TLR3 IRF3 reporter activation blockers – cell-based, poly I:C stimulus, luciferase, 10K MLSCN set, primary screen (AID 602277); conditions: HEK293-TLR3 RL24 IRF3 luciferase reporter, at 10 µM, stronger effect = higher value
Active and inactive are the calls of the source.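 Rule for the calls: active = inhibition of the reporter signal at or above 50%; inactive = inhibition below 50%.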
Reported inhibition values follow for various compounds
observable: inhibition

>>> observed_result("COc1ccc(OC)c(C(C)NC=O)c1 (stereo unspecified)")
"23.1% (inactive)"
>>> observed_result("Cc1ccc(C(=O)N2CCCC(c3nc4c(nnn4Cc4ccccc4)c(=O)[nH]3)C2)cc1 (stereo unspecified)")
"21.2% (inactive)"
>>> observed_result("Cc1cc(C(=O)NCCN2CCN(c3cccc(Cl)c3)CC2)n(-c2ccccc2)n1")
"35% (inactive)"
>>> observed_result("O=C(COC(=O)C1CC2C=CC1C2)Nc1ccc2c(c1)OC(F)(F)O2 (stereo unspecified)")
"20.1% (inactive)"
>>> observed_result("O=C(NCN1CCCCC1)c1cccnc1")
"35.7% (inactive)"
>>> observed_result("O=C(Cc1cccs1)Nc1nnc(CCc2ccccc2)s1")
"31.2% (inactive)"
>>> observed_result("CCN1CCN(c2ncnc3c2cnn3-c2ccc(C)cc2C)CC1")
"18.9% (inactive)"
>>> observed_result("CC(C)c1ccc(S(=O)(=O)N2CCN(CCC(=O)Nc3ccc(N(C)C)cc3)CC2)cc1")
"20% (inactive)"
>>> observed_result("CCn1cc(C(=O)NCCCOC)c(=O)c2cc(S(=O)(=O)N(C)C3CCCCC3)ccc21")
"28.2% (inactive)"
>>> observed_result("COc1ccc(S(=O)(=O)Nc2ccc(F)c(F)c2)cc1Cl")
"31.5% (inactive)"
>>> observed_result("COc1cccc(CN2CCN(C(=O)CC(C)C)CC2)c1")
"4.9% (inactive)"

----------
target: Voltage-gated potassium channel subunit beta-2 (Rattus norvegicus) (UniProt P62483); assay: enhancers of rat Kvbeta2 NADPH turnover – biochemical, NADPH fluorescence, primary screen (AID 623); conditions: Recombinant KvBeta, NADPH fluorescence decrease slope, 10 min; at 10 µM; stronger effect = lower value;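 note: fluorescence intensity change per second fitted from 20 to 320 s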
Sequence (P62483 whole entry, looked up): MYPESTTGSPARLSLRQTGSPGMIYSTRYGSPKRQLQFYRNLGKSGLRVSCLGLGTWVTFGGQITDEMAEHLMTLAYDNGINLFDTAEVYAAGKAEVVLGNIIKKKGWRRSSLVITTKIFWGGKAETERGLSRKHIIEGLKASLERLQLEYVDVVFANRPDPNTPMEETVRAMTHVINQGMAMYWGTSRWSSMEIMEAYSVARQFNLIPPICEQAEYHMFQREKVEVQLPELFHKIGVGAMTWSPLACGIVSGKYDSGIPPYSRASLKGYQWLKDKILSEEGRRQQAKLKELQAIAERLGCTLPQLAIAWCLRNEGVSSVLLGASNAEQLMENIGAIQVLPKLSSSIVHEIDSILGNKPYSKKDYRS
observable: NADPH fluorescence slope

>>> observed_result("O=S(=O)(Nc1cccnc1)c1cc(Cl)ccc1Cl")
"2e-06"
>>> observed_result("CCOc1ccc(-c2cc(C(=O)N3CCN(c4ccccn4)CC3)c3ccccc3n2)cc1")
"-6.7e-06"
>>> observed_result("O=C(c1ccco1)N(Cc1cc2ccccc2[nH]c1=O)C1CCCCC1")
"2e-05"
>>> observed_result("Cc1ccc(NC(=O)c2ccccc2F)nc1")
"-6.3e-05"
>>> observed_result("CC1Cc2ccccc2N1C(=O)C12CCC(C)(C(=O)C1)C2(C)C (stereo unspecified)")
"-7.5e-05"
>>> observed_result("O=C(O)c1ccc(COc2c(F)c(F)cc(F)c2F)cc1")
"-1.9e-05"
>>> observed_result("COc1ccccc1NC(=O)CSC1CC(=O)N(c2ccc3c(c2)OCO3)C1=O (stereo unspecified)")
"2.7e-05"
>>> observed_result("O=C(NCCC1=CCCCC1)N[C@@H](Cc1ccccc1)C(=O)O")
-0.000113
>>> observed_result("CCCCN=CC1=C(O)C(C(=O)OC)C(C)(C)CC1=O (stereo unspecified)")
"-6.2e-07"
>>> observed_result("OCCNc1nc2ccc(Cl)cc2[nH]1")
"1.9e-05"
>>> observed_result("COc1ccc(C(=O)N2CCN(C3CCC(c4ccccc4)CC3)CC2)cc1OC (stereo unspecified)")
"-5.4e-05"

----------
Listed here are compounds together with their documented inhibition.
test: inhibitors of TNFa-induced NFkB p65 translocation, primary screen, imaging, HUVEC, MLSMR starter and 10KST1 sets (AID 438); details: HUVEC TNFa-induced p65 nuclear translocation; at 2 µM, stronger effect = higher value, 0% TNFa-plus-vehicle, 100% no-TNFa wells;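 note: compound added about 3h40 before a 20 min TNFalpha stimulation; signal is the nuclear over cytoplasmic p65 intensity ratio per well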
Calls of active or inactive are those of the source.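 How the source made its calls: active means inhibition above 20% together with a positive visual image hit; inconclusive means visual image hit but inhibition not above 20%; inactive means no visual image hit.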
observable: inhibition

>>> observed_result("O=C(O)C1C2C=CC(C3CC23)C1C(=O)NCCc1ccccc1 (stereo unspecified)")
"-7.5% (inactive)"
>>> observed_result("CCOC(=O)Nc1ccc(NS(=O)(=O)c2ccc(C)cc2)cc1")
"-0.8% (inactive)"
>>> observed_result("CCOC(=O)C1CCCn2c1nc1sc3c(c1c2=O)CCCC3 (stereo unspecified)")
"3.7% (inactive)"
>>> observed_result("Cn1cc(-c2nc3ccccc3[nH]2)c2ccccc21")
"2.1% (inactive)"
>>> observed_result("CCOC(=O)c1cccc(NC2c3ccccc3C(=O)N2Cc2ccco2)c1 (stereo unspecified)")
"-2.3% (inactive)"
>>> observed_result("CCOC(=O)c1ccc(NS(=O)(=O)c2ccc3c(c2)CCCN3C(C)=O)cc1")
"0.7% (inactive)"
>>> observed_result("Cn1c(CCNC(=O)c2ccco2)nc2cc(NC(=O)C3CCCCC3)ccc21")
"0.5% (inactive)"
>>> observed_result("Cn1c(/C=N/n2cnnc2)nc2ccccc21")
"3.5% (inactive)"
>>> observed_result("CC(=O)c1ccc(OC(=O)c2cccs2)cc1")
"3.8% (inactive)"
>>> observed_result("C=CCn1c(Br)nc2c1c(=O)[nH]c(=O)n2C")
"-4.7% (inactive)"
>>> observed_result("Cc1c(C(=O)OCCOC(C)C)[nH]c2c1C(=O)CC(c1ccco1)C2 (stereo unspecified)")
"18% (inactive)"

----------
molecular target: Voltage-gated potassium channel subunit beta-2 (Rattus norvegicus) (UniProt P62483); experiment: enhancers of rat Kvbeta2 NADPH turnover – biochemical, NADPH fluorescence, primary screen (AID 623); conditions: Recombinant KvBeta, NADPH fluorescence decrease slope, 10 min; at 10 µM; stronger effect = lower value;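 note: fluorescence intensity change per second fitted from 20 to 320 s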
Below, each entry is listed alongside its reported NADPH fluorescence slope.
observable: NADPH fluorescence slope

>>> observed_result("O=C(CN1C(=O)C2C3C=CC(C3)C2C1=O)NCc1ccc2c(c1)OCO2 (stereo unspecified)")
"1.2e-05"
>>> observed_result("CC(=O)N1CCN(c2ccc(S(=O)(=O)N3CCCCC3)cn2)CC1")
"1.1e-05"
>>> observed_result("CSc1ccc(Cn2nnc(C(=O)NCc3ccccc3)c2N)cc1")
"-2e-05"
>>> observed_result("COC(=O)c1cn(NC(=O)C2CCCO2)c(=O)c2ccccc12 (stereo unspecified)")
"-3.7e-05"
>>> observed_result("CCOc1ccc2nc(NC(=O)C3CCCN(S(=O)(=O)c4c(C)noc4C)C3)sc2c1 (stereo unspecified)")
"-1.1e-05"
>>> observed_result("O=C1c2ccccc2CN1CCNS(=O)(=O)c1ccc(Cl)cc1")
"-7.9e-06"
>>> observed_result("CC(C)NC(=O)c1ccc2c(c1)nnn2C")
"2.3e-05"
>>> observed_result("Cn1c(=O)c2c(nc(SCC(=O)NCc3ccco3)n2C)n(C)c1=O")
"1.2e-05"
>>> observed_result("Cc1ccc(-c2nc3cnccn3c2Nc2ccc3c(c2)OCO3)o1")
"-6.6e-05"
>>> observed_result("O=C(Oc1ccc2ccc(OC(=O)N3CCOCC3)cc2c1)N1CCOCC1")
"-1.6e-05"
>>> observed_result("Cc1cccc2c1nc(-c1ccccc1)n1cnnc21")
"-2.6e-08"
>>> observed_result("Cc1cc(C(=O)NCCN2CCN(c3cccc(Cl)c3)CC2)n(-c2ccccc2)n1")
"-2.8e-05"
>>> observed_result("CC1CCCN(C(=O)c2cc3c(-c4ccc(Cl)cc4)nn(C)c3s2)C1 (stereo unspecified)")
"-5.2e-06"
>>> observed_result("CCOC(=O)CNC(=O)CSc1nnnn1-c1cc(C)ccc1C")
"3e-05"
>>> observed_result("CCOC(=O)C(C(=O)OCC)C(C)C#CCN1CCCCC1 (stereo unspecified)")
"-5.7e-05"
>>> observed_result("COc1ccc(Cn2nnnc2C(c2cc3cc(C)cc(C)c3[nH]c2=O)N2CCOCC2)cc1 (stereo unspecified)")
"-6.8e-05"
>>> observed_result("COCCOC(=O)c1[nH]c2c(c1C)C(=O)CC(c1ccc(N(C)C)cc1)C2 (stereo unspecified)")
"1.4e-05"
>>> observed_result("COc1ccc(-c2c(C(F)(F)F)oc3c(CN4CCN(C)CC4)c(O)ccc3c2=O)cc1")
"2.5e-05"
>>> observed_result("O=C(COC(=O)c1ccccc1O)Nc1ccc(OC(F)F)cc1")
"7.7e-06"
>>> observed_result("CN(Cc1ccccc1)S(=O)(=O)c1ccc(S(=O)(=O)N2CCN(CCC#N)CC2)cc1")
"-2.8e-05"
>>> observed_result("COc1cc(C2c3c(oc4ccccc4c3=O)C(=O)N2c2ccc(C)cn2)ccc1O (stereo unspecified)")
"-4.5e-05"
>>> observed_result("COC(=O)c1ccccc1NC(=O)c1ccc(COc2ccccc2)o1")
"-3.5e-05"
>>> observed_result("O=C(NCc1ccc2c(c1)OCO2)C1CCC(CNS(=O)(=O)c2ccccc2)CC1 (stereo unspecified)")
"1.3e-05"
>>> observed_result("CC(C)Cn1c(CN(Cc2ccccc2)Cc2ccccc2)nc2c1c(=O)n(C)c(=O)n2C")
"-1.8e-05"
>>> observed_result("CCOC(=O)c1cnc(SCC)[nH]c1=O")
"-2.9e-05"
>>> observed_result("COc1ccc(C(=O)Nc2ccc(S(=O)(=O)NC(C)=O)cc2)cc1")
"-2.4e-05"
>>> observed_result("CCOC(=O)c1sc(NC(=O)CSc2nnc3c4ccccc4n(CC)c3n2)nc1C")
"-1.9e-05"
>>> observed_result("COc1ccc(N2CCN(C(=O)C(C)(C)Oc3ccc(Cl)cc3)CC2)cc1")
"-4.3e-05"
>>> observed_result("COc1ccccc1N1CC(C(=O)Nc2cccc(C(=O)O)c2)CC1=O (stereo unspecified)")
"2.1e-05"
>>> observed_result("Fc1ccc(-c2ccc(-c3nn4c(-c5ccco5)nnc4s3)o2)cc1")
"-3e-05"
>>> observed_result("O=C(COc1ccccc1Cl)NCCCN1CCOCC1")
"-5.8e-05"
>>> observed_result("CC(=O)Nc1c(-c2ccc(F)cc2)nc2ccccn12")
"9e-06"
>>> observed_result("O=S(c1ccsc1)c1ccsc1")
"-4.1e-05"
>>> observed_result("Cc1ccc(S(=O)(=O)Nc2nc3ccccc3nc2NCc2ccco2)cc1")
"6.7e-06"
>>> observed_result("CCN(CC)CCCN1C(=O)C(O)=C(C(=O)c2ccco2)C1c1ccc(C)o1 (stereo unspecified)")
"-3.7e-05"
>>> observed_result("CC(CN(C)Cc1ccccc1)OC(=O)c1ccc2c(c1)OCCO2 (stereo unspecified)")
"-5.1e-05"
>>> observed_result("Cc1ccc2c(c1)N(CC(=O)N1CCCCC1c1cccnc1)C(=O)CO2 (stereo unspecified)")
"-6.9e-05"
>>> observed_result("CCOC(=O)C1=C(NC#N)OC(C)=C(C)C1c1ccc(O)cc1 (stereo unspecified)")
"-1.5e-05"
>>> observed_result("CC1(C)C(c2ccccc2)=NC(c2ccccc2)N1O (stereo unspecified)")
"-3e-05"
>>> observed_result("N#CC(C(=O)c1ccco1)c1ccccn1 (stereo unspecified)")
"-2e-05"
>>> observed_result("CCOc1ccc(-c2nc(C#N)c(N3CCCCCC3)o2)cc1")
"-1.9e-05"
>>> observed_result("COc1cc2c(cc1NCc1ccccn1)oc1ccccc12")
"-4.6e-05"
>>> observed_result("O=C(Nc1ccc2c(c1)OCCO2)c1ccco1")
"-3.7e-05"
>>> observed_result("CN(C)C(=O)Cn1c(SCC(=O)NC2CCCCC2)nc2ccccc21")
"6.1e-06"
>>> observed_result("COc1ccc(C(C(=O)NC2CCCCC2)N2CCC3(CC2)OCCO3)cc1 (stereo unspecified)")
"-6.1e-05"
>>> observed_result("CC(C)NC(=O)CSc1nc2ccccc2n1-c1ccccc1")
"9.8e-06"
